Assayed target: Transient receptor potential cation channel subfamily M member 7 (Mus musculus) (UniProt Q923J1)
Sequence (Q923J1 whole entry): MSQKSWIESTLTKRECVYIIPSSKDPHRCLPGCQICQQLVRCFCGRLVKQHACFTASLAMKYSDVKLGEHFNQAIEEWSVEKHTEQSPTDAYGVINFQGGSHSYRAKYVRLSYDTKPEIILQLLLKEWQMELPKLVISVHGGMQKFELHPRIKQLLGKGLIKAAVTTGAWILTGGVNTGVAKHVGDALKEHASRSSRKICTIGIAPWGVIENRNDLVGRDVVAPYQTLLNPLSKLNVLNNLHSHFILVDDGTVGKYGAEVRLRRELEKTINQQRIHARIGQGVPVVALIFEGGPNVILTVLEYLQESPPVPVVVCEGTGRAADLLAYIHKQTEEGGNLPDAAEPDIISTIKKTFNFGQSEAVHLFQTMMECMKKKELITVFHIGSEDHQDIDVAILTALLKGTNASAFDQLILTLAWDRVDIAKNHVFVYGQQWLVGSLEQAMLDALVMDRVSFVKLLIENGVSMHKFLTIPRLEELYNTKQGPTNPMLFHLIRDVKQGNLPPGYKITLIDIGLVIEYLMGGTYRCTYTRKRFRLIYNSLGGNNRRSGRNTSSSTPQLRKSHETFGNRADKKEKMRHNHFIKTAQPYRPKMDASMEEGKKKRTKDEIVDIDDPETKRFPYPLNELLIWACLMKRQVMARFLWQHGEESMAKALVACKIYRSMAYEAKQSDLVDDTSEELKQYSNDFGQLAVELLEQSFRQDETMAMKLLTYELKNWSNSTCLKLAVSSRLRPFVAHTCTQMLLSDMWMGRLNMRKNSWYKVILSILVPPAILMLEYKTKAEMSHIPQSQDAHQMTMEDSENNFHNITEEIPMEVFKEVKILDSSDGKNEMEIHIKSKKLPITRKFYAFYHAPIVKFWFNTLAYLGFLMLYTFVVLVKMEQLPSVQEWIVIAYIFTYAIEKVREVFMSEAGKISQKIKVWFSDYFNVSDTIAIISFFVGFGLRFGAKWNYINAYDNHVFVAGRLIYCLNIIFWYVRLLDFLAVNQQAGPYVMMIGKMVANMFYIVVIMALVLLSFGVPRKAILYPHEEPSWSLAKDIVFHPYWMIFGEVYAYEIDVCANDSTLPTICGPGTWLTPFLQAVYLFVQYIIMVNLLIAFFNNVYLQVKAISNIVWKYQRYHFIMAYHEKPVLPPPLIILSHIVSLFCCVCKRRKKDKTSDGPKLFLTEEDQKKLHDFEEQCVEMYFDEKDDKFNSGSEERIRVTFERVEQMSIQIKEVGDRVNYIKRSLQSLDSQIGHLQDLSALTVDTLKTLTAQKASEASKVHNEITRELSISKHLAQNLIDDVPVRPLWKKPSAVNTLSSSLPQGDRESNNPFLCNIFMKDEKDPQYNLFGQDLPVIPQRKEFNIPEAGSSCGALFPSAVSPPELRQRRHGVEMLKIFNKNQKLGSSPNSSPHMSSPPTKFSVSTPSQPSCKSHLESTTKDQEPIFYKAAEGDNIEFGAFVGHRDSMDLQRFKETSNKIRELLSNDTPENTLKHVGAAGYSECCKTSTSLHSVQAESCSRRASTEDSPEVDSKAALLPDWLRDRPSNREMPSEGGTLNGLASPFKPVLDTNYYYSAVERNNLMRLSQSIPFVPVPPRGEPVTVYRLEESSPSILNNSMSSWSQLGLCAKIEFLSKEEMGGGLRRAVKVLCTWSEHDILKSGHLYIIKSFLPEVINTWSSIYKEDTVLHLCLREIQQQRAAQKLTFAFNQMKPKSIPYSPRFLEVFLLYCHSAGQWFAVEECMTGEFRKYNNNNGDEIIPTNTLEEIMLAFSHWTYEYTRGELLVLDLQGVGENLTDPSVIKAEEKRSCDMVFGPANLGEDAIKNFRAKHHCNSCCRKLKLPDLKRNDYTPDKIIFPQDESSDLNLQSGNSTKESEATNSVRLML
Test description: Inhibition of Tet-induced Flag-tagged mouse TRPM7 expressed in HEK293 cells assessed as inhibition of channel-mediated cell death in presence of Mg2+ incubated for 24 to 48 hrs by propidium iodide uptake assay
Assay type: cell-based
Design: concentration or dose not given beside the values
Calls of active or inactive are those of the source. The rule behind the calls is not given here.
Endpoint name: inhibition

Example entries begin here.
Molecule: Cc1c(Cc2ccc(Cl)c(Cl)c2)c(=O)oc2cc(O)ccc12
inhibition: Active
//
Molecule: Cc1ccc(NS(=O)(=O)c2ccc(-c3csc(C)n3)s2)c(C)c1
inhibition: Active
//
Molecule: CCn1cnc2c(Nc3cccc(Cl)c3)nc(N[C@@H]3CCCC[C@@H]3N)nc21 (relative stereo)
inhibition: Dose-dependent effect
//
Molecule: COc1ccc(C[C@H](N)C(=O)N[C@H]2[C@@H](O)[C@H](n3cnc4c(N(C)C)ncnc43)O[C@@H]2CO)cc1
inhibition: Dose-dependent effect
//
Molecule: COc1ccccc1N1CCN(CC(O)COc2cccc3ccccc23)CC1 (centres undefined)
inhibition: Dose-dependent effect
//
Molecule: CCOc1ccc(Cc2nccc3cc(OCC)c(OCC)cc23)cc1OCC
inhibition: Dose-dependent effect
//
Molecule: COc1cc2c(c(OC)c1OC)-c1ccc(OC)c(=O)cc1[C@@H](NC(C)=O)CC2
inhibition: Active
//
Molecule: CC[C@H]1CN2CCc3cc(OC)c(OC)cc3[C@@H]2C[C@@H]1C[C@H]1NCCc2cc(OC)c(OC)cc21
inhibition: Active

Here is the next item to consider.
The molecule identified as Ic1ccccc1CN[C@@H]1C2CCN(CC2)[C@@H]1C(c1ccccc1)c1ccccc1 (relative stereo) registered its inhibition at Dose-dependent effect

###

Assayed target: UniProtKB Q923J1
Test description: Inhibition of Tet-induced Flag-tagged mouse TRPM7 expressed in HEK293 cells assessed as inhibition of channel-mediated cell death in presence of Mg2+ incubated for 24 to 48 hrs by propidium iodide uptake assay
Format: cell-based
Design: concentration or dose not given beside the values
Settings: concentration not given here
Outcome label depends on inhibition relative to 60%: at/above gives rule met, below gives rule not met.

Assess whether reported inhibition for O=C1CC2Sc3ccccc3N=C2N1Cc1ccccn1 (configuration not stated) sits at 60% or higher.
rule not met

# check: inhibition of COc1ccc(NC(=O)CSc2nnc(C)n2-c2ccc(OCc3ccccc3)cc2)cc1 is greater than or equal to 60%
rule not met

Given CCOC(=O)C(=CNNC(=O)c1cnn(-c2ccc([N+](=O)[O-])cc2)c1C(F)(F)F)C(=O)OCC , state whether its inhibition is at least 60%.
rule met

Say whether Cc1ccc(Cn2nc(C(=O)O)cc2C)cc1 shows inhibition of 60% or more.
rule not met

Determine whether measured inhibition meets or exceeds 60% for O=C(O)CNC(=O)c1cccs1
rule not met

Is it the case that Cc1noc(C)c1C(=O)OCc1ccc(-c2ccc(F)cc2F)o1 has inhibition reaching or exceeding 60%?
rule not met

inhibition >= 60% for CO[C@@H]1O[C@@H]2CO[C@H](COC(C)=O)[C@]3(OC(C)=O)CO[C@H](OC2[C@H](OC(C)=O)[C@H]1OC(C)=O)[C@@H](OC(C)=O)[C@@H]3OC(C)=O (some centres not stated) ?
rule not met

Assess whether reported inhibition for COC(=O)c1cc(C)nc(Sc2ccccc2NC(=O)c2ccccc2)n1 sits at 60% or higher.
rule not met

Quick check: does COc1ccc(CCN2C(=O)CS/C2=N\c2ccc(C(C)(C)C)cc2)cc1OC have inhibition greater than or equal to 60%?
rule not met

State whether the measured inhibition reaches 60%, counting equality as reaching it, for COC(=O)c1scc(S(=O)(=O)C(C)C)c1N/N=C(\C#N)C(=O)c1ccccc1
rule not met

State whether the measured inhibition reaches 60%, counting equality as reaching it, for CC(C)N(Cc1ccc(N(C)C)cc1)C(=O)c1sc2ccccc2c1Cl
rule not met

Dear colleague, could you confirm whether COc1ccc(CCNC(=O)c2sc3ccccc3c2Cl)cc1OC has inhibition at or above 60%?
rule not met

API: above_or_equal(metric=inhibition, cutoff=60%) for item O=C1/C(=C\c2cccs2)C(c2ccccc2)Oc2ccccc21 (configuration not stated)
rule not met

Kindly determine if inhibition recorded for FC(F)(F)c1cc(Oc2ccc(Cl)cc2)ccc1-c1ncc(-c2cccc(Cl)c2)o1 is above or exactly 60%.
rule met

Please check the record CSC1=N/C(=C\c2ccccc2O)C(=O)N1Cc1ccco1 and state if its inhibition is at or above 60%.
rule not met

Could you verify whether the entry CN(C)c1cc(-c2cc(Cl)sc2Cl)oc(=O)c1Cl shows inhibition of no less than 60%?
rule not met

Determine whether this molecule has inhibition no lower than 60%: COc1cc2c(cc1OC)C(c1cccc(C)c1)N(C(=O)c1sc3ccccc3c1Cl)CC2 (configuration not stated)
rule not met

Record O=c1ccn(-c2ccc(F)cc2)nc1-c1ccnc(SCc2ccc(C(F)(F)F)cc2)n1 ; criterion: inhibition no lower than 60%. Met?
rule not met

Record FC(F)(F)c1ccc(C2c3ccsc3CCN2C(=S)Nc2ccc(Cl)cc2Cl)cc1 (configuration not stated) ; criterion: inhibition no lower than 60%. Met?
rule met

Every entry's value here was drawn from ChEMBL document CHEMBL3727350.
